experiment: BT084 cell growth, single and combined drugs, ICGC_MB145, cisplatin and BGB IC40 combos (AID 1671461); conditions: BT084 medulloblastoma cells, drug combinations, at 0.5 µM, active compounds read high;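 also: cells exposed to drugs for 96 hours; 0% = vehicle DMSO and 100% = high DMSO full killing control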
Measured property: inhibition (%)
Numbers only, in %.

- Molecule: "C=C(C)C1CCC2(C(=O)O)CCC3(C)C(CCC4C5(C)CCC(O)C(C)(C)C5CCC43C)C12 (stereo not given)"
  inhibition (%): -12.4
- Molecule: "Cc1cc(C)cc(C(=O)NOCCCCCC(=O)NO)c1"
  inhibition (%): 35.6
- Molecule: "Cc1ccc(NC(=O)CCCCCC(=O)Nc2ccccc2N)cc1"
  inhibition (%): -11.1

I have 2 molecules here; please give me inhibition for each one.
1. Cc1cc(C)c(Nc2ccnc(Nc3ccc(C#N)cc3)n2)c(C)c1
2. C=CC1=C(C)C2=CC3=NC(=C(CC(=O)O)C4=NC(=C(C)C4=C(O)O)C=c4[nH]c(c(C)c4CC)=CC1=N2)C(CCC(=O)O)C3C (stereo not given)

Result block:
1: 8.57; 2: -4.34

All figures here come from PubChem BioAssay.
